- measurement description: qHTS assay for re-activators of p53 using a Luc reporter: Hit Validation; further: nearly all actives have a fitted effect of over 75% in size
- experimental conditions: p53-responsive luciferase reporter cells, luminescence, H1299 line expressing heat-sensitive Ala138Val p53; series mostly up to 46.1 µM
Inconclusive results are not listed. Active and inactive are the calls of the source. The call rests on the fitted dose curve; in most records, active means well fitted activation curve with a large enough effect; inconclusive means small, poorly fitted or top-dose-only effect; inactive means no such curve, though single readings can be large or run the other way.
Labels: active, inactive

[
  {
    "compound": "Oc1ccccc1-c1cc(-c2ccccc2)n[nH]1",
    "assigned category": "active"
  },
  {
    "compound": "O=C(NNC(=O)C1CCCO1)c1ccccc1Cl (configuration not stated)",
    "assigned category": "inactive"
  },
  {
    "compound": "O=C(Nc1ccc(N2CCCCCC2)cc1)c1ccc[nH]1",
    "assigned category": "active"
  },
  {
    "compound": "CCOC(=O)c1sc(NC(=S)NC(=O)c2ccco2)nc1C",
    "assigned category": "inactive"
  },
  {
    "compound": "O=C(NC(=S)NCCc1ccccc1)C1CCCCC1",
    "assigned category": "active"
  },
  {
    "compound": "COc1cccc(/C=C2\\Oc3ccc(O)cc3C2=O)c1O",
    "assigned category": "inactive"
  },
  {
    "compound": "O=C(NCC1CCCO1)c1ccc(NC(=O)c2cccc([N+](=O)[O-])c2)cc1 (configuration not stated)",
    "assigned category": "inactive"
  },
  {
    "compound": "C/C(=C\\COc1ccc2ccc(=O)oc2c1)CC[C@@H](O)C(C)(C)O",
    "assigned category": "inactive"
  },
  {
    "compound": "COc1cc(CN2CCCCC2C(=O)Nc2ccc(Oc3ccccc3)nc2)ccc1O (configuration not stated)",
    "assigned category": "inactive"
  },
  {
    "compound": "Cc1cc(C(=O)Cn2nnc3ccccc3c2=O)c(C)n1Cc1cccs1",
    "assigned category": "active"
  },
  {
    "compound": "CN(C)c1ccc(CNC2CC(C)(C)NC(C)(C)C2)cc1",
    "assigned category": "inactive"
  },
  {
    "compound": "CN1CCN(C(=O)c2cc3ccccc3cc2O)CC1",
    "assigned category": "inactive"
  }
]

* * *

- measurement description: qHTS assay for re-activators of p53 using a Luc reporter: Hit Validation; further: nearly all actives have a fitted effect of over 75% in size
- experimental conditions: p53-responsive luciferase reporter cells, luminescence, H1299 line expressing heat-sensitive Ala138Val p53; series mostly up to 46.1 µM
Results filed as inconclusive are left out. Calls of active or inactive are those of the source. The call rests on the fitted dose curve; in most records, active means well fitted activation curve with a large enough effect; inconclusive means small, poorly fitted or top-dose-only effect; inactive means no such curve, though single readings can be large or run the other way.
Labels: active, inactive

[
  {
    "compound": "N#C/C(=C/c1ccccc1[N+](=O)[O-])c1nc(C2CC2)cs1",
    "assigned category": "active"
  },
  {
    "compound": "CCc1ccc2[nH]c(=O)c(CN(CCN3CCCC3)C(=O)NC3CCCCC3)cc2c1",
    "assigned category": "inactive"
  },
  {
    "compound": "Cc1ccc2cc3c(N)c(C(=O)N4CCOCC4)sc3nc2c1",
    "assigned category": "active"
  },
  {
    "compound": "Cn1c(C(=O)Nc2ccc3c(c2)OCCO3)cc2sccc21",
    "assigned category": "active"
  },
  {
    "compound": "O=C(c1cnn(-c2ccccc2)c1)c1ccccc1O",
    "assigned category": "active"
  },
  {
    "compound": "O=C(CNc1ccccc1)N/N=C/c1c[nH]c2ccccc12",
    "assigned category": "inactive"
  },
  {
    "compound": "Cc1nc(SCC(=O)Nc2nccs2)c(C#N)c(C)c1C",
    "assigned category": "active"
  },
  {
    "compound": "S=C(Nc1ccccc1)Nc1nc2ccccc2n1CCOc1ccc(Br)cc1",
    "assigned category": "inactive"
  },
  {
    "compound": "Cc1cccc(N2CCN(S(=O)(=O)c3ccc4c(c3)CCC(=O)N4)CC2C)c1 (stereo unspecified)",
    "assigned category": "inactive"
  },
  {
    "compound": "Cc1ccc(NC(=O)CCN2C(=O)c3cccc([N+](=O)[O-])c3C2=O)c(Br)c1",
    "assigned category": "inactive"
  },
  {
    "compound": "OC(COc1ccc2cc(Br)ccc2c1)CN1CCCC1 (stereo unspecified)",
    "assigned category": "inactive"
  },
  {
    "compound": "CCc1ccc2[nH]c(=O)c(CN(CCN(CC)CC)C(=O)NC3CCCCC3)cc2c1",
    "assigned category": "inactive"
  },
  {
    "compound": "Clc1ccc(-c2cn3c(n2)-c2ccccc2C3)cc1Cl",
    "assigned category": "active"
  },
  {
    "compound": "CCn1c(=O)c2ccccc2n(Cc2ccccc2C)c1=O",
    "assigned category": "inactive"
  },
  {
    "compound": "CCN(CC)c1ccc(NC(=O)CN2CCN(CC(=O)Nc3ccccc3F)CC2)cc1",
    "assigned category": "inactive"
  },
  {
    "compound": "Cc1ccc(C(=O)c2c3ccc([N+](=O)[O-])cc3[n+]([O-])n2CCCN)cc1",
    "assigned category": "inactive"
  },
  {
    "compound": "C/C(=N\\NC(=O)c1cccc(Br)c1)c1ccccn1",
    "assigned category": "active"
  },
  {
    "compound": "Cc1cc(NC(=O)c2ccco2)sc1C",
    "assigned category": "active"
  },
  {
    "compound": "CCCCc1ccc(NC(=S)Nc2ccc(Nc3ccc(OC)cc3)cc2)cc1",
    "assigned category": "inactive"
  },
  {
    "compound": "COc1ccc(C2SCCN2C(=S)Nc2ccc(Cl)cc2)cc1 (stereo unspecified)",
    "assigned category": "inactive"
  },
  {
    "compound": "CC(C)c1ccc(C(O)c2nc3ccccc3n2C)cc1 (stereo unspecified)",
    "assigned category": "inactive"
  },
  {
    "compound": "Cc1nn(-c2ccccc2)c(N)c1Sc1ccc([N+](=O)[O-])cc1",
    "assigned category": "inactive"
  },
  {
    "compound": "COC(=O)c1ccc(/C=C/c2ccc3cccc(OC(C)=O)c3n2)cc1",
    "assigned category": "active"
  },
  {
    "compound": "c1ccc2nc(-c3ccc(N4CCOCC4)cc3)ccc2c1",
    "assigned category": "active"
  },
  {
    "compound": "Cc1ccc2oc(-c3ccc(C)c(NC(=S)NC(=O)c4cccs4)c3)nc2c1",
    "assigned category": "active"
  },
  {
    "compound": "Cc1ccc(OCCCNCCO)c(Br)c1",
    "assigned category": "inactive"
  },
  {
    "compound": "C=CCOc1c(OC)cc(/C=N/Nc2cccc(C(=O)O)c2)c(Br)c1Br",
    "assigned category": "active"
  },
  {
    "compound": "COc1ccccc1NC(CC(=O)c1ccccc1)C(=O)OCC(=O)c1ccc(C)c(C)c1 (stereo unspecified)",
    "assigned category": "active"
  },
  {
    "compound": "O=C(CSCC(=O)Nc1cccc([N+](=O)[O-])c1)Nc1ccccc1",
    "assigned category": "inactive"
  },
  {
    "compound": "CN(C(=O)NC(=O)C1=C(N2CCOCC2)/C(=C/c2ccccc2)CC1)S(C)(=O)=O",
    "assigned category": "inactive"
  },
  {
    "compound": "Cc1c(C(=O)OC2CCC(C)CC2)[nH]c2c1C(=O)CCC2 (stereo unspecified)",
    "assigned category": "active"
  },
  {
    "compound": "CC(C)(C)NC(=O)C(c1ccc(Cl)cc1)N(CCO)C(=O)c1snc(C(N)=O)c1N (stereo unspecified)",
    "assigned category": "inactive"
  },
  {
    "compound": "CN(Cc1ccccc1)c1ncnc2ccc(Br)cc12",
    "assigned category": "inactive"
  },
  {
    "compound": "CCCSc1ccc2nc(-c3ccccc3)cn2c1",
    "assigned category": "active"
  },
  {
    "compound": "CCOC(=O)c1[nH]nc(C(=O)c2ccc(Br)cc2)c1O",
    "assigned category": "inactive"
  },
  {
    "compound": "O=C(CCc1nc(-c2ccccc2)no1)N1CCCC1",
    "assigned category": "inactive"
  },
  {
    "compound": "O=C(Nc1ccc(Cl)cc1C(F)(F)F)c1ccccc1",
    "assigned category": "inactive"
  },
  {
    "compound": "COc1ccc(N2CCN(C3CCCN(Cc4cccc(OC)c4)C3)CC2)cc1 (stereo unspecified)",
    "assigned category": "inactive"
  },
  {
    "compound": "Cc1cccc(NC2SC(=O)N(c3ccccc3)C2=O)c1 (stereo unspecified)",
    "assigned category": "inactive"
  },
  {
    "compound": "COc1ccc(N2CCN(CCCNC(=O)C3(S(=O)(=O)c4ccc(Cl)cc4)CC3)CC2)cc1",
    "assigned category": "inactive"
  },
  {
    "compound": "Oc1cccc2c(NC(=S)Nc3ccc(OC(F)F)cc3)cccc12",
    "assigned category": "inactive"
  },
  {
    "compound": "CCc1ccc(OCC(=O)NC(NC(=S)Nc2ccccc2C)C(Cl)(Cl)Cl)cc1 (stereo unspecified)",
    "assigned category": "inactive"
  },
  {
    "compound": "Oc1[nH]c2ccccc2c1C=Nc1ccc2c(c1)OCCO2",
    "assigned category": "active"
  },
  {
    "compound": "Cc1cnc(C(=O)OCC(=O)Nc2ccc(OCc3ccccc3)cc2)cn1",
    "assigned category": "active"
  },
  {
    "compound": "Cc1cs/c(=N\\N=C\\c2ccc(O)cc2)n1Cc1ccco1",
    "assigned category": "inactive"
  },
  {
    "compound": "COc1ccccc1C(=O)O/N=C(\\N)c1ccccc1Cl",
    "assigned category": "inactive"
  }
]
